- system: T1, human neonatal Fc receptor (hFcRn) (human, UniProt P55899 24-290; P61769 21-119)
- T1 construct: Biotinylated in the ELISA, Octet and yeast assays; also called human FcRn; huFcRn
- T1 sequence (P55899 24-290 limits assumed, chain 1 of 2): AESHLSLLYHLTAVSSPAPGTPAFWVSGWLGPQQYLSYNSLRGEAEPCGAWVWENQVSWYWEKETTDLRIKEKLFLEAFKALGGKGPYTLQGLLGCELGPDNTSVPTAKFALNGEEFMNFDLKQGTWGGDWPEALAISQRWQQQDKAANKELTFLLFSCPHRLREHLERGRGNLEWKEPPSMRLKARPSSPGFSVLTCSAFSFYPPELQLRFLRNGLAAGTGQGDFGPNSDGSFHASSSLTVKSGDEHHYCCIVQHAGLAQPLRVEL
- T1 sequence (P61769 21-119 limits assumed, chain 2 of 2): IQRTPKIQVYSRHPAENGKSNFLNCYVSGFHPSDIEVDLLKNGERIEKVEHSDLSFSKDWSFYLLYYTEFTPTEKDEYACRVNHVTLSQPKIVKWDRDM
- assay.explanation: phage ELISA pH 6;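 also: higher score means stronger binding and above about 3 to 5 exceeds background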
property: ELISA score

binder="L5 isolate with insertion SEQ ID NO: 433 (other) EPKSCDKTHTCPPCPAPELLGGPSVFLFPPKPKDTLMISRTPEVTCVVVDVSHEDPEVKFNWYVDGVEVHNAKTKPREEQYNSTYRVVSVLTVLHQDWLNGKEYKCKVSNKALPAPIEKTISKAKGQPREPQVYTLPPSRDELTKNQVSLTCLVKGFYPSDIAVEWESNGGCEIPHSFCGGGQPENNYKTTPPVLDSDGSFFLYSKLTVDKSRWQQGNVFSCSVMHEALHNHYTQKSLSLSPGK" value=57.2
binder="L5 isolate with insertion SEQ ID NO: 449 (other) EPKSCDKTHTCPPCPAPELLGGPSVFLFPPKPKDTLMISRTPEVTCVVVDVSHEDPEVKFNWYVDGVEVHNAKTKPREEQYNSTYRVVSVLTVLHQDWLNGKEYKCKVSNKALPAPIEKTISKAKGQPREPQVYTLPPSRDELTKNQVSLTCLVKGFYPSDIAVEWESNGGCLQNLYVCGGGQPENNYKTTPPVLDSDGSFFLYSKLTVDKSRWQQGNVFSCSVMHEALHNHYTQKSLSLSPGK" value=51.6
binder="L5 isolate with insertion SEQ ID NO: 463 (other) EPKSCDKTHTCPPCPAPELLGGPSVFLFPPKPKDTLMISRTPEVTCVVVDVSHEDPEVKFNWYVDGVEVHNAKTKPREEQYNSTYRVVSVLTVLHQDWLNGKEYKCKVSNKALPAPIEKTISKAKGQPREPQVYTLPPSRDELTKNQVSLTCLVKGFYPSDIAVEWESNGGCMHSPHACGGGQPENNYKTTPPVLDSDGSFFLYSKLTVDKSRWQQGNVFSCSVMHEALHNHYTQKSLSLSPGK" value=46.8
